# key: entry, value: Single-concentration inhibitory activity on JAK3, Mean (100% inhibition)
# system: JAK3 (Homo sapiens, UniProt P52333)
# Construct: purchased Carna 08-046
# Sequence (P52333 whole entry): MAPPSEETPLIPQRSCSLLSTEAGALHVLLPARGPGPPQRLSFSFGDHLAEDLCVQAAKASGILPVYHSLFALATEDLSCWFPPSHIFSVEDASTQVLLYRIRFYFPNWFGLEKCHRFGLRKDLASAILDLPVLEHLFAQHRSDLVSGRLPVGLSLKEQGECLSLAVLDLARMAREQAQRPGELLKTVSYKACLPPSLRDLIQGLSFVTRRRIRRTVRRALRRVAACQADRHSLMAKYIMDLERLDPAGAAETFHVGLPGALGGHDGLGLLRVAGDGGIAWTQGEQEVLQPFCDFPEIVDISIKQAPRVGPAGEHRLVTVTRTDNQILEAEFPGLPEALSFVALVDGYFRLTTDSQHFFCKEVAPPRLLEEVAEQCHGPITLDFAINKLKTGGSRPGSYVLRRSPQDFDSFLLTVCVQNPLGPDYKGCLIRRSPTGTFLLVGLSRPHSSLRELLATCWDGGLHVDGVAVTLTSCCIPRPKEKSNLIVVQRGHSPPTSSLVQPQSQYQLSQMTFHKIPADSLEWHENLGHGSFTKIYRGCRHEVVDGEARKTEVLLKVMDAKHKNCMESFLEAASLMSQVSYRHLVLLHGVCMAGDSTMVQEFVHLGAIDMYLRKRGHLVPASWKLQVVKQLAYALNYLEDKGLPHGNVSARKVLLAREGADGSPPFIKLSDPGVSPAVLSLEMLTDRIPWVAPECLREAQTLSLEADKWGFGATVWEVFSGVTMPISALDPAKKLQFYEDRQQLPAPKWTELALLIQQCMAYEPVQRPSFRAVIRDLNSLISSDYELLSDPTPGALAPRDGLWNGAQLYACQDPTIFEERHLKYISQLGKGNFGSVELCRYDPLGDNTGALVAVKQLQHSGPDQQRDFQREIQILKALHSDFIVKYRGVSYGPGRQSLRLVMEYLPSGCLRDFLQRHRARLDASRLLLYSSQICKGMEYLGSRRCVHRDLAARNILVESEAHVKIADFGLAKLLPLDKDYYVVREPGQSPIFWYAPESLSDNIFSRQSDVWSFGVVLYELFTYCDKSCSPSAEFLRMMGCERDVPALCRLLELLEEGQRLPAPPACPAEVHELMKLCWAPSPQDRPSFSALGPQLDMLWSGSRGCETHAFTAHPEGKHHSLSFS
# measurement_description: Kinase inhibition, mobility shift assay
# Format: biochemical
# experimental_conditions: compound concentration 1 nM
Dear colleague, please return just the value in % inhibition, with no unit written.

# example entries with known answers
> print(dat)
                              sample.smiles  reported.result
1  C=CC(=O)Nc1cccc(Oc2nc(Nc3ccc(N4CCN(C)CC4)c([N+](=O)[O-])c3)nc3[nH]ccc23)c1               23
2  C=CC(=O)Nc1cccc(Oc2nc(Nc3ccc(N4CCN(C)CC4)c([N+](=O)[O-])c3)nc3c2ccn3COC(=O)C(C)(C)C)c1             −1.4
3  C=CC(=O)Nc1cccc(Oc2nc(Nc3ccc(N4CCN(C)CC4)c(N)c3)nc3[nH]ccc23)c1               29
4  C=CC(=O)Nc1cccc(Oc2nc(Nc3ccc(N4CCN(C)CC4)c(I)c3)nc3c2ccn3COC(=O)C(C)(C)C)c1             −4.0
5  C=CC(=O)Nc1cccc(Oc2nc(Nc3ccc(N4CCN(C)CC4)c(OC)c3)nc3[nH]ccc23)c1               26

Query: What measured Single-concentration inhibitory activity on JAK3, Mean (100% inhibition) goes with `C=CC(=O)Nc1cccc(Oc2nc(Nc3ccc(N4CCN(C)CC4)c(N)c3)nc3c2ccn3COC(=O)C(C)(C)C)c1` ?
Reply: −7.6

Query: Subsequent entry: `C=CC(=O)Nc1cccc(Oc2nc(Nc3ccc(N4CCN(C)CC4)c(Cl)c3)nc3[nH]ccc23)c1`
Reply: 77
